Ref: ChEMBL document CHEMBL1154363

System: Platelet
method: Inhibition of PGE2/collagen-induced platelet aggregation human platelets rich plasma
Assay type: functional
endpoint-name: pIC50
To interpret pIC50, take it as minus log10 of a concentration measured in moles per litre.

Fill in: pIC50 of Cc1cn(Cc2ccc(Cl)cc2Cl)c2c(-c3cc(NS(=O)(=O)c4ccc(F)c(F)c4)no3)cc(F)cc12 is ___
6.11

* * *

assay-system: Thromboxane A2 receptor (Homo sapiens) (UniProt P21731)
Sequence (P21731 whole entry): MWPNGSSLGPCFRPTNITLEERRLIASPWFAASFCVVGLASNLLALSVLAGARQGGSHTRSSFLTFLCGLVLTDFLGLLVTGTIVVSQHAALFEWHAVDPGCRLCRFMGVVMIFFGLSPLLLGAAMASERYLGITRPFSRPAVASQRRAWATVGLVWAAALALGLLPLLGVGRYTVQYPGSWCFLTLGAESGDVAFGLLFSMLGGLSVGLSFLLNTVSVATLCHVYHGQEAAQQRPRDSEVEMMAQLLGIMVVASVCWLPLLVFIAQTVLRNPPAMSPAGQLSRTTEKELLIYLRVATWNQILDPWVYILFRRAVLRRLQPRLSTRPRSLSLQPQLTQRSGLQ
method: Activity at TP receptor at 0.1 uM by FLIPR assay
# Activity values compiled below
Please reply with the bare figure in % and do not write the unit itself.

Below are worked cases with known answers.
smiles-data	Activity / %
Cc1cn(Cc2ccc(F)c(F)c2)c2c(-c3cc(NS(=O)(=O)c4ccc(F)c(F)c4)no3)cc(F)cc12	3
Cc1cn(Cc2ccc(Cl)cc2Cl)c2c(-c3nc(NS(=O)(=O)c4cc(Cl)c(Cl)s4)no3)cc(F)cc12	2
Cc1cn(Cc2ccc(Cl)cc2Cl)c2c(-c3nnc(NS(=O)(=O)c4ccc(F)c(F)c4)o3)cc(F)cc12	-5
Cc1cn(Cc2ccc3ccccc3c2)c2c(-c3cc(NS(=O)(=O)c4cc(Cl)c(Cl)s4)no3)cc(F)cc12	-12
Cc1cn(Cc2ccc3ccccc3c2)c2c(-c3cc(NS(=O)(=O)c4ccc(F)c(F)c4)no3)cc(F)cc12	3
Cc1cn(Cc2ccc3ccccc3c2)c2c(-c3cc(NS(=O)(=O)c4cc(F)c(F)cc4F)no3)cc(F)cc12	-9

Fill in: Activity of Cc1cn(Cc2ccc(Cl)cc2Cl)c2c(-c3nnc(NC(=O)c4ccc(F)c(F)c4)o3)cc(F)cc12 is ___
11

Fill in: Activity of Cc1cn(Cc2ccc(Cl)cc2Cl)c2c(-c3nnc(NS(=O)(=O)c4ccc(Cl)c(Cl)c4)o3)cc(F)cc12 is ___
3

* * *

assay-system: UniProt:P34995
method: Activity at EP1 receptor at 10 uM by FLIPR assay
endpoint-name: Activity (%)
Please reply with the bare figure in % and do not write the unit itself.

Below are worked cases with known answers.
smiles-data	endpoint-name	unit-abbreviation	quantitative-result
Cc1cn(Cc2ccc3ccccc3c2)c2c(-c3cc(NS(=O)(=O)c4cc(F)c(F)cc4F)no3)cc(F)cc12	Activity	%	100
Cc1cn(Cc2ccc(Cl)cc2Cl)c2c(-c3nnc(NC(=O)c4ccc(F)c(F)c4)o3)cc(F)cc12	Activity	%	96
Cc1cn(Cc2ccc3ccccc3c2)c2c(-c3cc(NS(=O)(=O)c4cc(Cl)c(Cl)s4)no3)cc(F)cc12	Activity	%	80
Cc1cn(Cc2ccc(F)c(F)c2)c2c(-c3cc(NS(=O)(=O)c4ccc(F)c(F)c4F)no3)cc(F)cc12	Activity	%	99
Cc1cn(Cc2ccc(Cl)cc2Cl)c2c(-c3nnc(NS(=O)(=O)c4ccc(F)c(F)c4)o3)cc(F)cc12	Activity	%	100

Fill in: Activity of Cc1cn(Cc2ccc3ccccc3c2)c2c(-c3cc(NS(=O)(=O)c4ccc(F)c(F)c4)no3)cc(F)cc12 is ___
62

Fill in: Activity of Cc1cn(Cc2ccc(Cl)cc2Cl)c2c(-c3nnc(NS(=O)(=O)c4cc(F)c(F)cc4F)o3)cc(F)cc12 is ___
99

Fill in: Activity of Cc1cn(Cc2ccc3ccccc3c2)c2c(-c3cc(NS(=O)(=O)c4ccc(Cl)c(Cl)c4)no3)cc(F)cc12 is ___
16

* * *

assay-system: UniProtKB P43088
Sequence (P43088 whole entry): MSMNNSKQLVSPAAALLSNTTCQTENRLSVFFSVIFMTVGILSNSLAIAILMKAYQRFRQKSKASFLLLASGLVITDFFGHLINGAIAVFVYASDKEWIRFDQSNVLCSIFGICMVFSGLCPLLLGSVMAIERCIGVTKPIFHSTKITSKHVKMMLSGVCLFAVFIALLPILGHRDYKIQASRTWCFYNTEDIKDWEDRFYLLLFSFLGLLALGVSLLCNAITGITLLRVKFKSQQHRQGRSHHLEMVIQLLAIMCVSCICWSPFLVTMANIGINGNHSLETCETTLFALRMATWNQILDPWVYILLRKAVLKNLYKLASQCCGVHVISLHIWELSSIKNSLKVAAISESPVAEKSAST
method: Activity at FP receptor at 10 uM by FLIPR assay
endpoint-name: Activity (%)
Please reply with the bare figure in % and do not write the unit itself.

Below are worked cases with known answers.
smiles-data	Activity (%)
Cc1cn(Cc2ccc(Cl)cc2Cl)c2c(-c3nc(NS(=O)(=O)c4cc(Cl)c(Cl)s4)no3)cc(F)cc12	30
Cc1cn(Cc2ccc3ccccc3c2)c2c(-c3cc(NS(=O)(=O)c4cc(F)c(F)cc4F)no3)cc(F)cc12	19
Cc1cn(Cc2ccc(Cl)cc2Cl)c2c(-c3nnc(NS(=O)(=O)c4cc(F)c(F)cc4F)o3)cc(F)cc12	64

Next item in the queue.
For the record Cc1cn(Cc2ccc(Cl)cc2Cl)c2c(-c3nnc(NS(=O)(=O)c4ccc(F)c(F)c4)o3)cc(F)cc12 , what value of Activity is listed for UniProtKB P43088?
41

* * *

# Activity values compiled below
assay-system: Prostaglandin E2 receptor EP1 subtype (Homo sapiens) (UniProt P34995)
method: Activity at EP1 receptor at 1 uM by FLIPR assay
Please reply with the bare figure in % and do not write the unit itself.

Below are worked cases with known answers.
smiles-data	unit-abbreviation	Activity
Cc1cn(Cc2ccc(F)c(F)c2)c2c(-c3cc(NS(=O)(=O)c4ccc(F)c(F)c4F)no3)cc(F)cc12	%	77
Cc1cn(Cc2ccc(Cl)cc2Cl)c2c(-c3nc(NS(=O)(=O)c4cc(Cl)c(Cl)s4)no3)cc(F)cc12	%	74
Cc1cn(Cc2ccc(F)c(F)c2)c2c(-c3cc(NS(=O)(=O)c4cc(Cl)c(Cl)s4)no3)cc(F)cc12	%	-5
Cc1cn(Cc2ccc3ccccc3c2)c2c(-c3cc(NS(=O)(=O)c4cc(Cl)c(Cl)s4)no3)cc(F)cc12	%	0
Cc1cn(Cc2ccc(F)c(F)c2)c2c(-c3cc(NS(=O)(=O)c4ccc(F)c(F)c4)no3)cc(F)cc12	%	11
Cc1cn(Cc2ccc3ccccc3c2)c2c(-c3cc(NS(=O)(=O)c4ccc(F)c(F)c4)no3)cc(F)cc12	%	9
Cc1cn(Cc2ccc(Cl)cc2Cl)c2c(-c3nnc(NS(=O)(=O)c4ccc(F)c(F)c4)o3)cc(F)cc12	%	30
Cc1cn(Cc2ccc(Cl)cc2Cl)c2c(-c3nnc(NS(=O)(=O)c4ccc(Cl)c(Cl)c4)o3)cc(F)cc12	%	16
Cc1cn(Cc2ccc(Cl)cc2Cl)c2c(-c3nnc(NC(=O)c4ccc(F)c(F)c4)o3)cc(F)cc12	%	10
Cc1cn(Cc2ccc3ccccc3c2)c2c(-c3cc(NS(=O)(=O)c4cc(F)c(F)cc4F)no3)cc(F)cc12	%	29

Fill in: Activity of Cc1cn(Cc2ccc(Cl)cc2Cl)c2c(-c3nnc(NS(=O)(=O)c4cc(F)c(F)cc4F)o3)cc(F)cc12 is ___
94

Fill in: Activity of Cc1cn(Cc2ccc3ccccc3c2)c2c(-c3cc(NS(=O)(=O)c4ccc(Cl)c(Cl)c4)no3)cc(F)cc12 is ___
-7

* * *

assay-system: Prostaglandin E2 receptor EP1 subtype (Homo sapiens) (UniProt P34995)
Sequence (whole entry): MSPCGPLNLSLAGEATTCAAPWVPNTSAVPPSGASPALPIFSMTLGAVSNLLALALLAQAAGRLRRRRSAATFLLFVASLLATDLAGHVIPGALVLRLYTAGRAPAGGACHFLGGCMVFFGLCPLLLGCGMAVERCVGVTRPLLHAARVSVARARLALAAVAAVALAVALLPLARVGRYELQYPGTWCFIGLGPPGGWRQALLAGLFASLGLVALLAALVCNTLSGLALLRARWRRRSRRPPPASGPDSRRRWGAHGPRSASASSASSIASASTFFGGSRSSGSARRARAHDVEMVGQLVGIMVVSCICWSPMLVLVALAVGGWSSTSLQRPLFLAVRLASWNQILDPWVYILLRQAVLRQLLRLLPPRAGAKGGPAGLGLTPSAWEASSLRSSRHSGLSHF
method: Activity at EP1 receptor at 0.1 uM by FLIPR assay
endpoint-name: Activity
Answer with the value and then the unit.

Below are worked cases with known answers.
smiles-data	Activity
Cc1cn(Cc2ccc(F)c(F)c2)c2c(-c3cc(NS(=O)(=O)c4ccc(F)c(F)c4F)no3)cc(F)cc12	5%
Cc1cn(Cc2ccc(Cl)cc2Cl)c2c(-c3nnc(NS(=O)(=O)c4ccc(Cl)c(Cl)c4)o3)cc(F)cc12	-2%
Cc1cn(Cc2ccc(F)c(F)c2)c2c(-c3cc(NS(=O)(=O)c4ccc(F)c(F)c4)no3)cc(F)cc12	-9%
Cc1cn(Cc2ccc(F)c(F)c2)c2c(-c3cc(NS(=O)(=O)c4cc(Cl)c(Cl)s4)no3)cc(F)cc12	-8%

Fill in: Activity of Cc1cn(Cc2ccc(Cl)cc2Cl)c2c(-c3nnc(NS(=O)(=O)c4cc(F)c(F)cc4F)o3)cc(F)cc12 is ___
25%

Fill in: Activity of Cc1cn(Cc2ccc(Cl)cc2Cl)c2c(-c3nnc(NS(=O)(=O)c4ccc(F)c(F)c4)o3)cc(F)cc12 is ___
-11%

Fill in: Activity of Cc1cn(Cc2ccc3ccccc3c2)c2c(-c3cc(NS(=O)(=O)c4ccc(F)c(F)c4)no3)cc(F)cc12 is ___
-3%

* * *

assay-system: Prostaglandin E2 receptor EP1 subtype (Homo sapiens) (UniProt P34995)
method: Activity at EP1 receptor at 10 uM by FLIPR assay
endpoint-name: Activity (%)
Please reply with the bare figure in % and do not write the unit itself.

Below are worked cases with known answers.
smiles-data	assay-system	quantitative-result
Cc1cn(Cc2ccc(F)c(F)c2)c2c(-c3cc(NS(=O)(=O)c4cc(Cl)c(Cl)s4)no3)cc(F)cc12	Prostaglandin E2 receptor EP1 subtype (Homo sapiens) (UniProt P34995)	52
Cc1cn(Cc2ccc(F)c(F)c2)c2c(-c3cc(NS(=O)(=O)c4ccc(F)c(F)c4)no3)cc(F)cc12	Prostaglandin E2 receptor EP1 subtype (Homo sapiens) (UniProt P34995)	99
Cc1cn(Cc2ccc(Cl)cc2Cl)c2c(-c3nnc(NS(=O)(=O)c4ccc(Cl)c(Cl)c4)o3)cc(F)cc12	Prostaglandin E2 receptor EP1 subtype (Homo sapiens) (UniProt P34995)	100

Next item in the queue.
Fill in: Activity of Cc1cn(Cc2ccc(Cl)cc2Cl)c2c(-c3nc(NS(=O)(=O)c4cc(Cl)c(Cl)s4)no3)cc(F)cc12 is ___
100
